B1: KLHL12 (parent)
chain: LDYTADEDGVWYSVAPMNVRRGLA

Variants of: B1
experiment_summary: protein stability index of a GFP-peptide fusion (GPS, HEK-293T) (PSI 1-6); higher = more stable;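 also: lentivirally expressed fusions sorted by FACS into six bins by GFP to DsRed ratio, PSI derived from sequencing read proportions per bin multiplied by bin number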
condition_notes: c terminus: a fixed tail appended
endpoint_name: protein stability index
# answer = number (no unit)

Answered examples (2):
input_sequence	quantitative_result
LDYTADEDGLWYSVAPMNVRRGLA [V10L]	3.09
LDNTADEDGVWYSVAPMNVRRGLA [Y3N]	3.78

Proceeding to the next variant to report its protein stability index.
Query block: Recorded protein stability index of LDYTADEDGVWYSVAPMNVRRGIA [L23I] , please.
Result block: 1.74
